Molecular target: T1, DFNB31_1, Q9P202
T1 sequence (Q9P202 135-233, limits assumed, looked up): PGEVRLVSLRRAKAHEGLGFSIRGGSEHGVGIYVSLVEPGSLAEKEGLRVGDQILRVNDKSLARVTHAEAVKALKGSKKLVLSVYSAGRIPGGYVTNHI
Assay: holdup assay
Design: key: below the threshold = too weak to quantify, mostly under pKd 3.1 to 4
Conditions: plain residues with an end cap or a label only (N-terminal biotin on a linker: ahx)
Endpoint: pKd

VNENQKEYFF [CNTNAP4, Q9C0A0]
below the threshold
KDECVIATEV [DLL1, O00548]
below the threshold
ADENEQVSAV [RAPGEF6, Q8TEU7]
below the threshold
AKPQPVDSWV [ARVCF, O00192]
4.28
